Measured values drawn from PubChem BioAssay (NCATS) for this set.

target: Retinaldehyde dehydrogenase 3 (Homo sapiens); experiment: qHTS for Inhibitors of the Aldehyde Dehydrogenase Family (ALDH1A3) Primary screen (AID 2061315); details: ALDH inhibition qHTS; series mostly up to 56 µM
Records with an inconclusive call do not appear. Calls of active or inactive are those of the source. The call rests on the fitted dose curve; in most records, active means well fitted inhibition curve with a large enough effect; inconclusive means small, poorly fitted or top-dose-only effect; inactive means no such curve, though single readings can be large or run the other way.
READOUT_LABEL: activity change, negative = inhibition

CCC(C)/C=C(C)/C=C/C1=CC2=C(Cl)C(=O)C(C)(OC(C)=O)C(=O)C2(O)C(OC)O1 (stereo not given) :: inactive
Cn1ccc2cc(-c3csc(N4CCC(C(N)=O)CC4)n3)ccc21 :: inactive
C[C@H](Oc1cc(-n2cnc3ccc(CN4CCN(C)CC4)cc32)sc1C(N)=O)c1ccccc1C(F)(F)F :: inactive
O=C(Nc1ccccn1)c1sc2ccc([N+](=O)[O-])cc2c1Cl :: inactive

The reported value for Cn1c2cc(CO)sc2c2cnn(Cc3ccccc3F)c(=O)c21 in terms of activity change, negative = inhibition is inactive
